Values compiled from patent EP0372582A2.

assay: Blood concentration parameters after administration to mice; format: in vivo; conditions: mouse, blood; mice, PO, 50 mg/kg
measured endpoint: AUC (ng·h/mL)

[1] CSC1=C(C(=O)O)N2C(=O)[C@H]([C@@H](C)N)[C@H]2[C@H]1C
[2] C[C@@H](N)[C@H]1C(=O)N2C(C(=O)O)=C(SCc3ccccn3)[C@H](C)[C@H]12
[3] C[C@@H](N)[C@H]1C(=O)N2C(C(=O)O)=C(SCc3cccnc3)[C@H](C)[C@H]12
Exercise: Put the items in sequence by AUC, from largest down. List each label, following the requested order.
Key: 2, 3, 1

---

tested on: E. coli; assay: Protective dose (PD50) in infected animals; assay type: in vivo, mice; parameters: unit not given here; conditions: PO
Consider the following molecules and their measured PD50, E. coli readings.
Answer with a bare number; do not write a unit.

CSC1=C(C(=O)O)N2C(=O)[C@H]([C@@H](C)NC(=O)[C@H](CC(C)C)NC(=O)[C@H](C)N)[C@H]2[C@H]1C [Procedure 39]: 25.00

Exercise: I'd like to know its PD50, E. coli. The molecule in question is CSC1=C(C(=O)O)N2C(=O)[C@H]([C@@H](C)NC(=O)CNC(=O)[C@H](C)N)[C@H]2[C@H]1C [Procedure 38]
Key: 25.00

Exercise: I'd like to know its PD50, E. coli. The molecule in question is C[C@@H](N)[C@H]1C(=O)N2C(C(=O)O)=C(SCc3cccnc3)[C@H](C)[C@H]12 [Procedure 21]
Key: 8.10

Exercise: I'd like to know its PD50, E. coli. The molecule in question is C[C@@H](N)[C@H]1C(=O)N2C(C(=O)O)=C(SCc3ccccn3)[C@H](C)[C@H]12 [Procedure 18]
Key: 11.20

Exercise: I'd like to know its PD50, E. coli. The molecule in question is C[C@@H](N)[C@H]1C(=O)N2C(C(=O)O)=C(SCc3cn(C)nn3)[C@H](C)[C@H]12 [Procedure 15]
Key: 21.80

Exercise: I'd like to know its PD50, E. coli. The molecule in question is CSC1=C(C(=O)O)N2C(=O)[C@H]([C@@H](C)N)[C@H]2[C@H]1C [Procedure 9]
Key: 12.50

---

assay: Chemical stability in aqueous solution (half-life); format: physicochemical; settings: 37°C, pH 2.0 citric acid buffer, by hplc; read-out: t1/2, pH 2
measured endpoint: half-life (h)
Give just the numeric value; h need not be written.

C[C@@H](N)C1C(=O)N2C(C(=O)O)=C(SCc3ccccc3)[C@H](C)[C@H]12 (stereo in doubt): 2.4

Continue with the molecule presented below.
Exercise: I'd like to know its half-life. The molecule in question is C[C@H](N)[C@H]1C(=O)N2C(C(=O)O)=C(SCCC#N)[C@H](C)[C@H]12
Key: 0.583

---

assay: Blood concentration parameters after administration to mice; assay type: in vivo; conditions: mouse, blood; mice, PO, 50 mg/kg; read-out: Cmax, PO/50
measured endpoint: Cmax (ng/mL)

C[C@@H](N)[C@H]1C(=O)N2C(C(=O)O)=C(SCc3ccccn3)[C@H](C)[C@H]12: 33000
CSC1=C(C(=O)O)N2C(=O)[C@H]([C@@H](C)NC(=O)CNC(=O)[C@H](C)N)[C@H]2[C@H]1C: 2000

[a] CSC1=C(C(=O)O)N2C(=O)[C@H]([C@@H](C)N)[C@H]2[C@H]1C
[b] C[C@@H](N)[C@H]1C(=O)N2C(C(=O)O)=C(SCc3cccnc3)[C@H](C)[C@H]12
[c] CSC1=C(C(=O)O)N2C(=O)[C@H]([C@@H](C)NC(=O)[C@H](CC(C)C)NC(=O)[C@H](C)N)[C@H]2[C@H]1C
Exercise: Put the entries in order of Cmax, starting with the largest number. List each label, following the requested order.
Key: b, a, c
